The values you see were collected from ChEMBL document CHEMBL3612051.

Measurement Target: Carbonic anhydrase 9 (Homo sapiens)
Protocol: Inhibition of human recombinant full length carbonic anhydrase 9 preincubated for 15 mins by stopped-flow CO2 hydration assay
Assay Readout: Ki (nM)
// note: answer is a bare numeric in nM

Solved cases (7 shown):
NS(=O)(=O)c1ccc(C(=O)N2CCc3cc(O)c(O)cc3C2)cc1 : 5.01
COc1ccc2c(c1)CCCN2C(=O)c1ccc(S(N)(=O)=O)cc1 : 6.5
NS(=O)(=O)c1ccc(C(=O)N2CCCc3cc(O)ccc32)cc1 : 42
COc1cc2c(cc1OC)CN(C(=O)c1ccc(S(N)(=O)=O)cc1)CC2 : 6.1
NS(=O)(=O)c1ccc(C(=O)N2CCc3cc(O)ccc3C2)cc1 : 28
COc1ccc2c(c1)CCN(C(=O)c1ccc(S(N)(=O)=O)cc1)C2 : 27
NS(=O)(=O)c1ccc(C(=O)N2CCCc3ccccc32)cc1 : 9.4

Turning now to a further record.
So what's the measured Ki for this one? NS(=O)(=O)c1ccc(C(=O)N2CCc3ccccc3C2)cc1
7.5
